Tested on: kochia (Bassia scoparia)
Assay: Test A preemergence soil spray, visual injury rating 0-100
Assay type: in vivo
Settings: 31 g ai/ha, 10 days, 0 = no effect, 100 = complete control
Excerpt: […]

molecule	Kochia plant response rating (0-100)
CONC(=O)C1CC(NC(=O)C2(C)CN(c3cc(F)cc(F)c3)C(=O)O2)CO1 (stereo not shown) [Compound 39]	0
CCOC(=O)C1=CCC(NC(=O)C2(C)CN(c3cc(F)cc(F)c3)C(=O)O2)C1 (stereo not shown) [Compound 15]	0
COC(=O)C1=CCC(NC(=O)C2(C)CN(c3cc(Cl)cc(Cl)c3)C(=O)O2)C1 (stereo not shown) [Compound 58]	10
CC(C)COC(=O)C1=CCC(NC(=O)C2(C)CN(c3cc(F)cc(F)c3)C(=O)O2)C1 (stereo not shown) [Compound 16]	0
COC(=O)C1=CC[C@H](NC(=O)C2(C)CN(c3cc(F)cc(F)c3)C(=O)O2)C1 (mixture of isomers) [Compound 37]	0
COC(=O)C1CC(NC(=O)C2(C)CN(c3cc(F)cc(F)c3)C(=O)O2)CO1 (stereo not shown) [Compound 29]	0
CC1(C(=O)NC2C=CC(C(=O)ON=Cc3ccccc3)C2)CN(c2cc(F)cc(F)c2)C(=O)O1 (stereo not shown) [Compound 68]	80

---

Test system: kochia (Bassia scoparia)
Experiment: Test A postemergence application, visual injury rating 0-100
Assay type: in vivo
Details: 31 g ai/ha, postemergence, 10 days, 0 = no effect, 100 = complete control

molecule	Kochia plant response rating (0-100)
COC(=O)C1=CCC(NC(=O)C2(C)CN(c3cc(F)cc(F)c3)C(=O)O2)C1 (single isomer, unassigned) [Compound 20]	0
COC(=O)C1=CC[C@H](NC(=O)C2(C)CN(c3cc(F)cc(F)c3)C(=O)O2)C1 (mixture of isomers)	80
COC(=O)C1=CCC(NC(=O)C2(C)CN(c3cc(F)cc(F)c3)C(=O)O2)C1 (stereo not shown) [Compound 21]	80
CC(C)OC(=O)C1CCC(NC(=O)C2(C)CN(c3cc(F)cc(Cl)c3)C(=O)O2)C1 (stereo not shown)	0

---

Tested on: ragweed (common ragweed, Ambrosia artemisiifolia)
Assay: Test A postemergence application, visual injury rating 0-100
Assay type: in vivo
Settings: 62 g ai/ha, postemergence, 10 days, 0 = no effect, 100 = complete control

molecule	system	Ragweed plant response rating (0-100)
CC(C)COC(=O)C1=CCC(NC(=O)C2(C)CN(c3cc(F)cc(Cl)c3)C(=O)O2)C1 (stereo not shown) [Compound 143]	ragweed (common ragweed, Ambrosia artemisiifolia)	0
CCOC(=O)C1=CCC(NC(=O)C2(C)CN(c3cc(F)cc(F)c3)C(=O)O2)C1 (stereo not shown) [Compound 111]	ragweed (common ragweed, Ambrosia artemisiifolia)	0
CC1(C(=O)NC2CC=C(C(=O)NS(C)(=O)=O)C2)CN(c2cc(F)cc(F)c2)C(=O)O1 (racemic) [Compound 103]	ragweed (common ragweed, Ambrosia artemisiifolia)	30
CC1(C(=O)NC2CC(C(=O)O)C2)CN(c2cc(F)cc(Cl)c2)C(=O)O1 (racemic) [Compound 139]	ragweed (common ragweed, Ambrosia artemisiifolia)	40

---

System: horseweed (Erigeron canadensis)
Assay: Test A postemergence application, visual injury rating 0-100
Format: in vivo
Conditions: Postemergence, 125 g ai/ha, 10 days; 0 is no effect, 100 is complete control
measured.property: Horseweed plant response rating (0 to 100 scale)

molecule	result
COC(=O)C1C=CC(NC(=O)C2(C)CN(c3cc(F)cc(Cl)c3)C(=O)O2)C1 (stereo not drawn) [Compound 17]	70
COC(=O)C1=CC[C@H](NC(=O)C2(C)CN(c3cc(F)cc(F)c3)C(=O)O2)C1 (mixture of isomers) [Compound 37]	70
CCOC(=O)COC(=O)C1C=CC(NC(=O)C2(C)CN(c3cc(F)cc(F)c3)C(=O)O2)C1 (stereo not drawn) [Compound 53]	70
CC1(C(=O)NC2C=CC(C(=O)OCC(F)(F)F)C2)CN(c2cc(F)cc(F)c2)C(=O)O1 (stereo not drawn) [Compound 55]	80
COC(=O)C1=CCC(NC(=O)C2(C)CN(c3cc(F)cc(F)c3)C(=O)O2)C1 (stereo not drawn) [Compound 21]	70
CONC(=O)C1CC(NC(=O)C2(C)CN(c3cc(F)cc(F)c3)C(=O)O2)CO1 (stereo not drawn) [Compound 39]	0
CC1(C(=O)NC2CC=C(C(=O)O)C2)CN(c2cc(F)cc(F)c2)C(=O)O1 (stereo not drawn) [Compound 38]	70
CCOC(=O)C1CCC(NC(=O)C2(C)CN(c3cc(F)cc(Cl)c3)C(=O)O2)C1 (stereo not drawn) [Compound 19]	0
CC1(C(=O)NC2C=CC(C(=O)OC3CCCC3)C2)CN(c2cc(F)cc(F)c2)C(=O)O1 (stereo not drawn) [Compound 57]	60
CC(C)COC(=O)C1C=CC(NC(=O)C2(C)CN(c3cc(Cl)cc(Cl)c3)C(=O)O2)C1 (stereo not drawn) [Compound 66]	70
CSCCOC(=O)C1=CCC(NC(=O)C2(C)CN(c3cc(F)cc(F)c3)C(=O)O2)C1 (stereo not drawn) [Compound 23]	90
CSCCOC(=O)C1C=CC(NC(=O)C2(C)CN(c3cc(Cl)cc(Cl)c3)C(=O)O2)C1 (stereo not drawn) [Compound 69]	80
CCCS(=O)(=O)OC(=O)C1C=CC(NC(=O)C2(C)CN(c3cc(Cl)cc(Cl)c3)C(=O)O2)C1 (mixture of isomers) [Compound 79]	70
CC1(C(=O)NC2C=CC(C(=O)NS(C)(=O)=O)C2)CN(c2cc(F)cc(F)c2)C(=O)O1 (stereo not drawn) [Compound 30]	30
CC1(C(=O)NC2C=CC(C(=O)OC3CCCC3)C2)CN(c2cc(Cl)cc(Cl)c2)C(=O)O1 (stereo not drawn) [Compound 59]	70
CNC(=O)C1CCC(NC(=O)C2(C)CN(c3cc(F)cc(F)c3)C(=O)O2)C1 (stereo not drawn) [Compound 14]	0
CC1(C(=O)NC2C=CC(C(=O)NS(=O)(=O)C(C)(C)C)C2)CN(c2cc(F)cc(F)c2)C(=O)O1 (stereo not drawn) [Compound 80]	70
COC(=O)C1C=CC(NC(=O)C2(C)CN(c3cc(Cl)cc(Cl)c3)C(=O)O2)C1 (stereo not drawn) [Compound 42]	80

---

System: palmer (palmer amaranth, palmer pigweed, Amaranthus palmeri)
Experiment: Test A postemergence application, visual injury rating 0-100
Assay type: in vivo
Conditions: 31 g ai/ha, postemergence, 10 days, 0 = no effect, 100 = complete control
Reported Amaranth, Palmer plant response rating (0-100) by item:
measured.property: Amaranth, Palmer plant response rating (0-100)

compound	result
CSCCOC(=O)C1=CCC(NC(=O)C2(C)CN(c3cc(F)cc(F)c3)C(=O)O2)C1 (stereo not drawn)	20
CC(C)COC(=O)C1=CCC(NC(=O)C2(C)CN(c3cc(F)cc(F)c3)C(=O)O2)C1 (stereo not drawn)	20
CC1(C(=O)NC2C=CC(C(=O)OC3CCCC3)C2)CN(c2cc(F)cc(F)c2)C(=O)O1 (stereo not drawn)	20

---

Tested on: ryegrass, Italian (italian ryegrass, Lolium multiflorum)
Experiment: Test A preemergence soil spray, visual injury rating 0-100
Format: in vivo
Conditions: 31 g ai/ha, 10 days, 0 = no effect, 100 = complete control
measured.property: Ryegrass, Italian plant response rating (0-100)

compound	result
CC1(C(=O)NC2C=CC(C(=O)OCc3ccc(F)cc3)C2)CN(c2cc(F)cc(F)c2)C(=O)O1 (stereo not shown) [Compound 54]	50
CC(C)COC(=O)C1C=CC(NC(=O)C2(C)CN(c3cc(F)cc(F)c3)C(=O)O2)C1 (stereo not shown) [Compound 56]	80
CC1(C(=O)NC2C=CC(C(=O)OCC(F)(F)F)C2)CN(c2cc(Cl)cc(Cl)c2)C(=O)O1 (stereo not shown) [Compound 64]	50
CSCCOC(=O)C1=CCC(NC(=O)C2(C)CN(c3cc(F)cc(F)c3)C(=O)O2)C1 (stereo not shown) [Compound 22]	0

---

Tested on: oat, wild (wild oat, Avena fatua)
Experiment: Test A preemergence soil spray, visual injury rating 0-100
Assay type: in vivo
Settings: 16 g ai/ha, 0 to 100 scale, 10 days

compound	Oat, Wild plant response rating
CC1(C(=O)NC2CC=C(C(=O)O)C2)CN(c2cc(F)cc(Cl)c2)C(=O)O1 (stereo not drawn)	0
CC1(C(=O)NC2CC=C(C(=O)OCC(F)F)C2)CN(c2cc(Cl)cc(Cl)c2)C(=O)O1 (stereo not drawn)	0
COC(=O)COC(=O)C1=CCC(NC(=O)C2(C)CN(c3cc(Cl)cc(Cl)c3)C(=O)O2)C1 (stereo not drawn)	0
COC(=O)C1C=CC(NC(=O)C2(C)CN(c3cc(Cl)c(F)c(Cl)c3)C(=O)O2)C1 (stereo not drawn)	0
CC1(C(=O)NC2CC=C(C(=O)O)C2)CN(c2cc(Cl)cc(Cl)c2)C(=O)O1 (stereo not drawn) [Compound 158]	10
CC1(C(=O)NC2CC=C(C(=O)OCC(F)(F)F)C2)CN(c2cc(Cl)cc(Cl)c2)C(=O)O1 (stereo not drawn)	0
COC(=O)C1CC(NC(=O)C2(C)CN(c3cc(F)cc(F)c3)C(=O)O2)C1 (stereo not drawn)	90
CC1(C(=O)NC2CC=C(C(=O)NS(=O)(=O)C3CC3)C2)CN(c2cc(F)cc(F)c2)C(=O)O1 (racemic)	0
CCOC(=O)C1C=CC(NC(=O)C2(C)CN(c3cccc(OC(F)(F)F)c3)C(=O)O2)C1 (stereo not drawn)	0
CC1(C(=O)NC2CC=C(C(=O)O)C2)CN(c2cc(Cl)cc(Cl)c2)C(=O)O1 (stereo not drawn) [Compound 157]	0
COC(=O)C1C=CC(NC(=O)C2(C)CN(c3cc(F)cc(F)c3)C(=O)O2)C1 (stereo not drawn) [Compound 89]	80
C=CC1(C(=O)NC2C=CC(C(=O)OC)C2)CN(c2cc(F)cc(F)c2)C(=O)O1 (single isomer, unassigned)	50
CC1(C(=O)NC2C=CC(C(=O)O)C2)CN(c2cc(Cl)c(F)c(Cl)c2)C(=O)O1 (stereo not drawn)	0
CCOC(=O)C1CC(NC(=O)C2(C)CN(c3cc(F)cc(F)c3)C(=O)O2)C1 (stereo not drawn)	90
CC1(C(=O)NC2CC=C(C(=O)NS(=O)(=O)c3ccccc3)C2)CN(c2cc(F)cc(F)c2)C(=O)O1 (racemic)	0
CC(C)OC(=O)C1=CCC(NC(=O)C2(C)CN(c3cc(Cl)cc(Cl)c3)C(=O)O2)C1 (stereo not drawn)	0
CCOC(=O)C1=CCC(NC(=O)C2(C)CN(c3cc(Cl)cc(Cl)c3)C(=O)O2)C1 (stereo not drawn)	0
COC(=O)C1C=CC(NC(=O)C2(C)CN(c3cc(F)cc(F)c3)C(=O)O2)C1 (stereo not drawn) [Compound 92]	0

Ref: patent US20260285850A1
